We begin with a simple list: items and their reported pEC50.
System: Human immunodeficiency virus 1
Test: Antiviral activity against HIV1 3B infected in human MT4 cells assessed as reduction in virus-induced cytopathic effect by MTT assay
Assay type: functional, organism-based
Conditions: Human immunodeficiency virus 1, 3B, read-out: EC50
# pEC50 is unitless: minus log10 of the molar concentration; print number only

Study these solved cases before continuing.
- Structure: "Cc1cc(/C=C/C#N)cc(C)c1Oc1ccnc(Nc2ccc(CN3CC[S+]([O-])CC3)cc2)n1"
  Recorded measurement: 8.62
- Structure: "Cc1cc(C#N)cc(C)c1Oc1ccnc(Nc2ccc(CN3CCSCC3)cc2)n1"
  Recorded measurement: 7.55
- Structure: "Cc1cc(C#N)cc(C)c1Oc1ccnc(Nc2ccc(CN3CCCN(S(=O)(=O)N(C)C)CC3)cc2)n1"
  Recorded measurement: 6.80

Continue with the compound presented below.
// lookup pEC50 for Cc1cc(/C=C/C#N)cc(C)c1Oc1ccnc(Nc2ccc(CN3CCCN(S(=O)(=O)N(C)C)CC3)cc2)n1
7.68

###

Test: Selectivity index, ratio of CC50 for human MT4 cells to EC50 for antiviral activity against HIV 3B infected in human MT4 cells
Format: toxicity, cell-based
Settings: read-out: Ratio CC50/EC50
We begin with a simple list: items and their reported selectivity ratio.
# print the numeric value only

Study these solved cases before continuing.
- Structure: "Cc1cc(/C=C/C#N)cc(C)c1Oc1ccnc(Nc2ccc(CN3CC[S+]([O-])CC3)cc2)n1"
  Recorded measurement: 9860
- Structure: "Cc1cc(C#N)cc(C)c1Oc1ccnc(Nc2ccc(CN3CCCN(S(C)(=O)=O)CC3)cc2)n1"
  Recorded measurement: 100
- Structure: "Cc1cc(C#N)cc(C)c1Oc1ccnc(Nc2ccc(CN3CC[S+]([O-])CC3)cc2)n1"
  Recorded measurement: 3250

// lookup selectivity ratio for Cc1cc(/C=C/C#N)cc(C)c1Oc1ccnc(Nc2ccc(CN3CCN(S(=O)(=O)C4CC4)CC3)cc2)n1
717

Queued: CCS(=O)(=O)N1CCN(Cc2ccc(Nc3nccc(Oc4c(C)cc(/C=C/C#N)cc4C)n3)cc2)CC1
810

Queued: Cc1cc(/C=C/C#N)cc(C)c1Oc1ccnc(Nc2ccc(CN3CCCN(S(=O)(=O)N(C)C)CC3)cc2)n1
182

###

We begin with a simple list: items and their reported selectivity ratio.
Experiment: Selectivity index, ratio of CC50 for human MT4 cells to EC50 for antiviral activity against HIV HIV1 RES056 harboring K103N/Y181C double mutant infected in human MT4 cells
Assay type: toxicity, cell-based
Conditions: read-out: Ratio CC50/EC50

// lookup selectivity ratio for Cc1cc(C#N)cc(C)c1Oc1ccnc(Nc2ccc(CN3CCN(S(=O)(=O)C(C)C)CC3)cc2)n1
< 1

###

Tested on: Human immunodeficiency virus 1
Assay: Antiviral activity against HIV1 RES056 harboring K103N/Y181C double mutant infected in human MT4 cells assessed as reduction in virus-induced cytopathic effect by MTT assay
Type: functional, organism-based
Settings: Human immunodeficiency virus 1, RES056, MT4; read-out: EC50
Reported property: EC50 (µM)
The answer is to be given in µM; state only the numeric part.

- Structure: "Nc1ccn([C@@H]2CS[C@H](CO)O2)c(=O)n1"
  EC50 / µM: 6.83

Continue with the molecule presented below.
// lookup EC50 for Cc1cc(/C=C/C#N)cc(C)c1Oc1ccnc(Nc2ccc(CN3CCS(=O)(=O)CC3)cc2)n1
1.08
